Tested on: SK-MEL-5 melanoma
Assay: NCI tumour cell line growth inhibition, 48 h
Some compounds, each annotated with its measured TGI.

# example entries with known answers
{"columns": ["compound", "experimentalSystem", "measure", "result"],
 "data": [
  ["O=C(CC(=O)C(=O)Nc1ccccc1)CC(c1ccccc1)c1c(O)c2ccccc2oc1=O (configuration not stated)", "SK-MEL-5 melanoma", "TGI", "> 100 µM"],
  ["Cn1cc(C2=C(c3c4n(c5ccccc35)CCCC4)C(=O)NC2=O)c2ccccc21", "SK-MEL-5 melanoma", "TGI", "> 25 µM"],
  ["CN(CCC#N)c1ccc(/C=C(\\C#N)c2cccc(C(F)(F)F)c2)cc1", "SK-MEL-5 melanoma", "TGI", "30.5 µM"],
  ["Nc1ccc(-c2ncc3cc(-c4cccc(-c5cc6cnc(-c7ccc(N)cc7)nc6c6ccccc56)c4)c4ccccc4c3n2)cc1", "SK-MEL-5 melanoma", "TGI", "> 100 µM"]
]}

Q: Return reported TGI; argument: COC(=O)/C=C/c1cnc2c(c1)oc(=O)n2CCc1ccccn1
A: > 100 µM

Q: Return reported TGI; argument: CCC(CS(=O)(=O)O)[N+](=O)[O-] (configuration not stated)
A: > 100 µM

Q: Return reported TGI; argument: CC1(c2cccc3c2C2(O)C=CC4(CCC32)OCCO4)OCCO1 (configuration not stated)
A: > 100 µM
